Each item that follows carries a reported reverse-splicing fitness.
B1: Azoarcus group I ribozyme (parent)
chain: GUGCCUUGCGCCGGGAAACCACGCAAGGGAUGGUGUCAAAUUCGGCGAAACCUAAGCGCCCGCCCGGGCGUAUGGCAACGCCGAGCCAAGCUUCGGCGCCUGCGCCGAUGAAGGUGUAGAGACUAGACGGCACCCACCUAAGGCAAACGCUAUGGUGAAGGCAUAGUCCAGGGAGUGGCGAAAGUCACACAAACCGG

Variants of: B1
assay: reverse-splicing fitness (ratio to wild type); higher = more active; in vitro selection; Mg2+ level not given

# changes, reverse-splicing fitness
data = [
    ("A111C A120U A145U C150U C169A", 0.00426),
    ("A111G A120C C150A C169A U176G", 0.00468),
    ("C82G A111G A120C A145U C150A C169G U176A", 0.0168),
    ("C82G A111C A120G", 0.0185),
    ("C82G A111G A145G C150G U176A", 0.0145),
    ("A111C A120G A145G C150U C169U U176A", 0.0338),
    ("C82U A111C A145U U176A", 0.0808),
    ("C82U A111U A120U A145G C150U C169A", 0.00562),
    ("A111C A145U C150A C169G U176C", 0.0203),
    ("C82G A111G A120C A145G C150U C169U U176A", 0.0133),
]
